Reported shrunken log2 fold change values are given for each entry in this list.
test system: Escherichia coli TOP10; test: shrunken log2 fold change of peptide-encoding DNA abundance (4.5 h post-induction vs induction); higher = less antimicrobial activity (less host growth inhibition); conditions: time post-induction: 4.5 h; library: site-saturation at positions 5, 18, 19, 20
API note: the answer field is a bare number with no unit suffix.

Sample records with shrunken log2 fold change:
RRIRHRPPRLPRPRPRPAPVPRP = 0.466
RRIRFRPPRLPRPRPRPGWDPRP = 0.0298
RRIRCRPPRLPRPRPRPVVGPRP = -0.0604
RRIRRRPPRLPRPRPRPKAMPRP = 0.431

// next item, shrunken log2 fold change requested
So what's the measured shrunken log2 fold change for this one? "RRIRARPPRLPRPRPRPIVEPRP"
0.207

* * *

test system: Escherichia coli TOP10; experiment: shrunken log2 fold change of peptide-encoding DNA abundance (4.5 h post-induction vs induction); higher = less antimicrobial activity (less host growth inhibition); details: time post-induction: 4.5 h; library: site-saturation at positions 5, 18, 19, 20
Each record's class is read off its shrunken log2 fold change using these ranges: LOW (below -0.2), MID (-0.2 to below 0.04), HIGH (0.04 or more)

Solved cases below.
RRIRLRPPRLPRPRPRPWNLPRP = MID
RRIRTRPPRLPRPRPRPVKIPRP = LOW
RRIRLRPPRLPRPRPRPRLRPRP = HIGH
RRIRDRPPRLPRPRPRPPFWPRP = HIGH
RRIRYRPPRLPRPRPRPATHPRP = LOW
RRIRTRPPRLPRPRPRPCNVPRP = MID
RRIRWRPPRLPRPRPRPTMLPRP = HIGH
RRIRRRPPRLPRPRPRPVDPPRP = HIGH
RRIRMRPPRLPRPRPRPKAVPRP = MID
RRIRIRPPRLPRPRPRPCFWPRP = LOW

GET /class?item= "RRIRNRPPRLPRPRPRPRCLPRP"
MID

Item: "RRIRGRPPRLPRPRPRPIWCPRP"
HIGH

Now consider "RRIRYRPPRLPRPRPRPRRNPRP" and answer again.
LOW

Would you kindly repeat that for "RRIRMRPPRLPRPRPRPYRFPRP" ?
MID

Now this one: "RRIRRRPPRLPRPRPRPMQKPRP"
MID

* * *

Reported shrunken log2 fold change values for a set of sequences
tested on: Escherichia coli TOP10; experiment: shrunken log2 fold change of peptide-encoding DNA abundance (4.5 h post-induction vs induction); higher = less antimicrobial activity (less host growth inhibition); settings: time post-induction: 4.5 h; library: site-saturation at positions 5, 18, 19, 20

Reference set, count: 5
RRIRERPPRLPRPRPRPTSFPRP = 0.0302
RRIRTRPPRLPRPRPRPAVVPRP = 0.0328
RRIRRRPPRLPRPRPRPQGWPRP = 0.294
RRIRSRPPRLPRPRPRPHIPPRP = -0.836
RRIRIRPPRLPRPRPRPKHQPRP = -0.495

Item under review: "RRIRKRPPRLPRPRPRPIHHPRP" . Reported shrunken log2 fold change?
0.0077

Now this one: "RRIRCRPPRLPRPRPRPFLDPRP"
-0.0521

Entry "RRIRNRPPRLPRPRPRPQNYPRP" please
-0.846

* * *

system: Escherichia coli TOP10; experiment: shrunken log2 fold change of peptide-encoding DNA abundance (4.5 h post-induction vs induction); higher = less antimicrobial activity (less host growth inhibition); conditions: time post-induction: 4.5 h; library: site-saturation at positions 5, 18, 19, 20;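 also: peptides expressed intracellularly from a pBAD plasmid library in pooled LB shake-flask culture, induced with 0.3% L-arabinose, DNA abundance read by NGS, three biological replicates, DESeq2 with apeglm shrinkage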
Measured parameter: shrunken log2 fold change
Please reply with the number alone, leaving off any unit.

The examples below pair each entry with its known result.
RRIRSRPPRLPRPRPRPYWWPRP = -0.231
RRIRKRPPRLPRPRPRPALYPRP = 0.453

Given "RRIRQRPPRLPRPRPRPVEWPRP" , state its recorded shrunken log2 fold change.
0.0152

Thanks! And "RRIRERPPRLPRPRPRPNKVPRP" ?
-0.372

# repeat for "RRIRLRPPRLPRPRPRPFIVPRP"
-0.238

Next up: "RRIRNRPPRLPRPRPRPGGDPRP"
0.00185

Also, "RRIRGRPPRLPRPRPRPTWDPRP" please.
1.01

What do we get for "RRIRWRPPRLPRPRPRPFECPRP" ?
-0.01

What would you report for "RRIRIRPPRLPRPRPRPNRNPRP" ?
-1.1

Also need "RRIRHRPPRLPRPRPRPIEEPRP" , thanks.
-0.127

What would you report for "RRIRERPPRLPRPRPRPSGWPRP" ?
-0.0693

Same question for "RRIRLRPPRLPRPRPRPEIFPRP" please.
0.161

Note, next up: "RRIRSRPPRLPRPRPRPGHKPRP"
-0.112

Input "RRIRARPPRLPRPRPRPGPHPRP"
0.568

Now the same for "RRIRGRPPRLPRPRPRPRIHPRP"
0.273

Try the sequence "RRIRPRPPRLPRPRPRPEICPRP"
0.0345

Okay, and "RRIRMRPPRLPRPRPRPPMCPRP" ?
0.293

// same read-out, input: "RRIRDRPPRLPRPRPRPDKLPRP"
-0.0536

Now the sequence "RRIRGRPPRLPRPRPRPEWYPRP"
0.243

Next sequence up: "RRIRKRPPRLPRPRPRPLETPRP"
0.361

Record: "RRIRNRPPRLPRPRPRPRKLPRP"
-0.0702

Now give it for "RRIRTRPPRLPRPRPRPQKAPRP" too.
0.00748
